The measured values listed here are drawn from PubChem BioAssay (NCI).

# GI50 per record follows
System: UACC-62 melanoma
Experiment: NCI tumour cell line growth inhibition, 48 h

[
  {
    "compound": "CN(C)c1ccc(/C=C\\C2=[N+](C)c3ccccc3C2(C)C)cc1",
    "GI50": "1490 nM"
  },
  {
    "compound": "CC(=O)[CH-]C(=O)c1ccccc1.CC(=O)[CH-]C(=O)c1ccccc1.CN(C)c1ccc([O-])cc1.CN(C)c1ccc([O-])cc1.Cl.[Ti+4]",
    "GI50": "> 31600 nM"
  },
  {
    "compound": "O=C(Nc1ccc(-n2ccc3c(NC(=O)c4ccccc4)nccc32)cc1)c1ccc(Cl)c(C(F)(F)F)c1",
    "GI50": "576 nM"
  },
  {
    "compound": "COC1/C=C/OC2(C)Oc3c(C)c(O)c4c(O)c(c(/C=N/Nc5ccc([N+](=O)[O-])cc5[N+](=O)[O-])c(O)c4c3C2=O)NC(=O)C(C)=C/C=C/C(C)C(O)C(C)C(O)C(C)C(OC(C)=O)C1C (centres undefined)",
    "GI50": "1370 nM"
  },
  {
    "compound": "CCN1CCN(Cc2ccc(NC(=O)c3cccc(C#Cc4cccc5[nH]nc(N)c45)c3)cc2C(F)(F)F)CC1",
    "GI50": "509 nM"
  }
]

Per the records, this compound ( COc1cccc(-c2cc(-c3cccc(NS(C)(=O)=O)c3)nc(N)c2C#N)c1O ) has GI50 equal to 64 nM

// sample CN1CCCCC1CCN1c2ccccc2Sc2ccc(Cl)cc21 (centres undefined) , its GI50 was 2160 nM

The compound Cc1ccc(NC(=O)Nc2ccc(-c3cccnc3)cc2N2CCC(CO)CC2)cc1 showed GI50 equal to 2300 nM

Looking up O=C(Nc1ccc(F)cc1)Nc1ccc(Cl)c([N+](=O)[O-])c1 , I see its GI50 listed as 3040 nM
